B1: CPEB3 Ribozyme (parent)
chain: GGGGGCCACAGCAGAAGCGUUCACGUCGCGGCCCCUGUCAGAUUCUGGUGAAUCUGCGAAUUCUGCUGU

- Variants of: B1
- protocol description: self-cleavage, relative activity (ratio to wild type); higher = more cleavage; co-transcriptional
Reported values of self-cleavage for individual entries
Please respond with just the number, no unit label.

A16C G50U = 0.306

Which measured self-cleavage value corresponds to A10U C12A ?
0.707

Which measured self-cleavage value corresponds to G11U C54G ?
0.412

Which measured self-cleavage value corresponds to A15G C57U ?
0.294

Which measured self-cleavage value corresponds to A10C U21C ?
0.905
